Target Entity: μ-opioid receptor (Homo sapiens (Human), UniProt P35372)
Test Summary: μ-opioid receptor [35S]GTPγS functional assay, HEK-293 cells (Table 6)
Type: biochemical
Applied Conditions: μ GTP
Observed Property: pEC50
In plain terms, pEC50 is the concentration in mol/L turned into minus its base-10 logarithm.

Consider the reported pEC50 for these compounds:
> print(dat)
                           structure.smiles                             target.entity  quantitative.result
1  NC(=O)c1ccc2c(c1)[C@]13CCN(CC4CC4)[C@H](C2)[C@]1(O)C[C@H](C(=O)NCCN1CCOCC1)C3  μ-opioid receptor (Homo sapiens (Human), UniProt P35372)                 6.76
2  CN1CC[C@]23C[C@@H](C(=O)NCc4ccc(Cl)cc4Cl)C[C@@]2(O)[C@H]1Cc1ccc(O)cc13  μ-opioid receptor (Homo sapiens (Human), UniProt P35372)                 6.41
3  O=C(NCc1ccc(F)cc1F)[C@H]1C[C@]23CCN(CC4CC4)[C@H](Cc4ccc(O)cc42)[C@]3(O)C1  μ-opioid receptor (Homo sapiens (Human), UniProt P35372)                 8.65

// moving on: another record for pEC50
Requested read-out pEC50, target or system μ-opioid receptor (Homo sapiens (Human), UniProt P35372), entry C[C@@H]1CN(CCNC(=O)[C@H]2C[C@]34CCN(CC5CC5)[C@H](Cc5ccc(O)cc53)[C@]4(O)C2)C[C@H](C)O1 7.99
